Field: Activity on Rhinovirus Type 1A MTC. Provide a value for each of the molecules that follow.
test system: human embryo lung (MRC-5) cells; assay: Cytotoxicity (CC50 or MTC) in uninfected MRC-5 cells; conditions: unit not given

Prompt: Dear colleague, I am looking for the recorded Activity on Rhinovirus Type 1A MTC of the following molecule: CON=Cc1ccc(OCCC2CCN(c3ccc(Cl)nn3)CC2)c(C)c1 [Compound 44]
Completion: >1

Prompt: Dear colleague, I am looking for the recorded Activity on Rhinovirus Type 1A MTC of the following molecule: CON=Cc1cc(C)c(OCCCc2cc(C)no2)c(C)c1 [Compound 22]
Completion: 36.0

Prompt: Dear colleague, I am looking for the recorded Activity on Rhinovirus Type 1A MTC of the following molecule: CCON=Cc1ccc(OCCC2CCN(c3ccc(-c4ccccc4)nn3)CC2)cc1 [Compound 56]
Completion: >10

Prompt: Dear colleague, I am looking for the recorded Activity on Rhinovirus Type 1A MTC of the following molecule: CCON=Cc1cccc(OCCN2CCN(c3ccc(Cl)nn3)CC2)c1 [Compound 76]
Completion: >1

Prompt: Dear colleague, I am looking for the recorded Activity on Rhinovirus Type 1A MTC of the following molecule: CCON=Cc1ccc(OCCC2CCN(c3ccc(Cl)nn3)CC2)cc1O [Compound 37]
Completion: >1

Prompt: Dear colleague, I am looking for the recorded Activity on Rhinovirus Type 1A MTC of the following molecule: C=CCON=Cc1ccc(OCCC2CCN(c3ccc(C)nn3)CC2)cc1 [Compound 87]
Completion: >1

Prompt: Dear colleague, I am looking for the recorded Activity on Rhinovirus Type 1A MTC of the following molecule: CON=Cc1ccc(OCCN2CCN(c3ccc(C)nn3)CC2)cc1 [Compound 67]
Completion: >1

Prompt: Dear colleague, I am looking for the recorded Activity on Rhinovirus Type 1A MTC of the following molecule: CCCON=Cc1ccc(OCCC2CCN(c3ccc(C)nn3)CC2)c(C)c1 [Compound 54]
Completion: 0.663

Prompt: Dear colleague, I am looking for the recorded Activity on Rhinovirus Type 1A MTC of the following molecule: CCO/N=C/c1ccc(Oc2cnc3cc(Cl)ccc3n2)cc1 [Compound 211]
Completion: >10

Prompt: Dear colleague, I am looking for the recorded Activity on Rhinovirus Type 1A MTC of the following molecule: C=CCON=Cc1cccc(OCCCC2CCN(c3ccc(C)nn3)CC2)c1 [Compound 99]
Completion: >1
